- Test system: striatum dopamine level
- experiment_description: Protection against MPTP-induced striatal dopamine decrease in mice
- Assay type: in vivo, male CFY mice
- measurement_context: Mus musculus, ip, 0.1 mmole/kg, 1 hour before MPTP 70 mg/kg s.c., striatum DA 72-96 hours after MPTP, read-out: DA decrease induced by MPTP, % inhibition, i.p. route
result_type: inhibition in vivo at 100 µmol/kg (%)
Number only, in %; omit the unit.

So for C=CCN1CCN(CCOC(c2ccc(F)cc2)c2ccc(Br)cc2)CC1 (centres unmarked) , the logged inhibition in vivo at 100 µmol/kg turned out to be 100

So for "CCCN1CCN(CCOC(c2ccc(F)cc2)c2ccc(F)cc2)CC1" , the logged inhibition in vivo at 100 µmol/kg turned out to be 100

So for "C=CCN1CCN(CCOC(c2ccc(F)cc2)c2ccc(F)cc2)CC1" , the logged inhibition in vivo at 100 µmol/kg turned out to be 98

So for CCCCN1CCN(CCOC(c2ccccc2)c2ccc(Cl)c(Cl)c2)CC1 (centres unmarked) , the logged inhibition in vivo at 100 µmol/kg turned out to be 98

So for "C=CCN1CCN(CCOC(c2ccc(Cl)cc2)c2ccc(Cl)cc2)CC1" , the logged inhibition in vivo at 100 µmol/kg turned out to be 100

###

- Test system: striatum dopamine level
- experiment_description: Protection against MPTP-induced striatal dopamine decrease in mice
- Assay type: in vivo, male CFY mice
- measurement_context: Mus musculus, ip, 0.1 mmole/kg, 1 hour before MPTP 70 mg/kg s.c., striatum DA 72-96 hours after MPTP, read-out: DA decrease induced by MPTP, % inhibition, i.p. route
result_type: inhibition in vivo at 100 µmol/kg (%)
Number only, in %; omit the unit.

Form field inhibition in vivo at 100 µmol/kg for item "C=CCN1CCN(CCOC(C)(c2ccc(F)cc2)c2ccc(F)cc2)CC1" on striatum dopamine level: 89

Form field inhibition in vivo at 100 µmol/kg for item C=CCN1CCN(CCOC(c2ccc(F)cc2)c2ccc(Cl)cc2)CC1 (stereo not drawn) on striatum dopamine level: 100

Form field inhibition in vivo at 100 µmol/kg for item "CCCCCC(=O)N1CCN(CCOC(c2ccc(F)cc2)c2ccc(F)cc2)CC1" on striatum dopamine level: 82

Form field inhibition in vivo at 100 µmol/kg for item CCCN1CCN(CCOC(c2ccc(F)cc2)c2ccc(Cl)cc2)CC1 (stereo not drawn) on striatum dopamine level: 95

Form field inhibition in vivo at 100 µmol/kg for item "CCCCN1CCN(CCOC(c2ccc(F)cc2)c2ccc(F)cc2)CC1" on striatum dopamine level: 100

Form field inhibition in vivo at 100 µmol/kg for item C=CCN1CCN(CCOC(c2ccccc2)c2ccc(Cl)c(Cl)c2)CC1 (stereo not drawn) on striatum dopamine level: 100
